Give measured cell viability of combination for each item. Keep answers brief.
test system: UCD52 (cells of a triple-negative basal-like breast cancer xenograft); experiment: cell viability of combination (% of vehicle); higher = less cytotoxic; settings: 1 µM; 72 h; partner dose: 10 nM
Numbers only.

I would be grateful if you could provide cell viability of combination for each of the following entries.
1. Cc1c(C(=O)NN2CCCCC2)nn(-c2ccc(Cl)cc2Cl)c1-c1ccc(Cl)cc1 [Rimonabant] + CN(C)C/C=C/C(=O)Nc1cc2c(Nc3ccc(F)c(Cl)c3)ncnc2cc1O[C@H]1CCOC1 [Afatinib]
2. CO[C@H]1C[C@@H]2CC[C@@H](C)[C@@](O)(O2)C(=O)C(=O)N2CCCC[C@H]2C(=O)O[C@H]([C@H](C)C[C@@H]2CC[C@@H](O)[C@H](OC)C2)CC(=O)[C@H](C)/C=C(\C)[C@@H](O)[C@@H](OC)C(=O)[C@H](C)C[C@H](C)/C=C/C=C/C=C/1C [Rapamycin (Sirolimus)] + CN(C)C/C=C/C(=O)Nc1cc2c(Nc3ccc(F)c(Cl)c3)ncnc2cc1O[C@H]1CCOC1 [Afatinib]
3. CNC(=O)c1cc(Oc2ccc(NC(=O)Nc3ccc(Cl)c(C(F)(F)F)c3)cc2)ccn1 [Sorafenib] + CN(C)C/C=C/C(=O)Nc1cc2c(Nc3ccc(F)c(Cl)c3)ncnc2cc1O[C@H]1CCOC1 [Afatinib]
4. COc1cc(C(=O)O)ccc1NC(=O)C1NC(CC(C)(C)C)C(C#N)(c2ccc(Cl)cc2F)C1c1cccc(Cl)c1F (centres undefined) + CN(C)C/C=C/C(=O)Nc1cc2c(Nc3ccc(F)c(Cl)c3)ncnc2cc1O[C@H]1CCOC1 [Afatinib]

output:
[75, 42.5, 52.2, 60.4]

The measurements presented in this section are drawn from the supplement of paper PMC6992640.
